Conditions: buffer; pH 7.4; 200.0 µM
Entries and their measured solubility kinetic follow.

- Compound: "O=C(O)c1ccc2c(=O)[nH]c(CCl)nc2c1"
  solubility kinetic: "> 35.8 µg/mL"
- Compound: "COCCCC/C(=N\\OCCN)c1ccc(C(F)(F)F)cc1.O=C(O)/C=C\\C(=O)O"
  solubility kinetic: "> 65.2 µg/mL"
- Compound: "CC1(C)CN2C(=O)c3ccccc3C2(C)S1 (stereo unspecified)"
  solubility kinetic: "> 35 µg/mL"
- Compound: "Clc1ccc(CNc2ccc(N3CCN(Cc4ccccc4)CC3)cc2)cc1"
  solubility kinetic: "1 µg/mL"

What the record says about `Cc1cc(C(=O)COC(=O)/C=C/c2ccco2)c(C)n1C` : solubility kinetic is 12.9 µg/mL

What the record says about `Cn1cnc([N+](=O)[O-])c1Sc1ncnc2nc[nH]c12` : solubility kinetic is > 41.6 µg/mL

###

Conditions: buffer; pH 7.4; 200.0 µM
Entries and their measured solubility kinetic follow.

Here are 5 molecules together with their reported answers.
- Molecule: "Nc1nc(Nc2ccccc2F)nc(NCc2ccccc2)c1[N+](=O)[O-]"
  solubility kinetic: "< 0.1 µg/mL"
- Molecule: "CCOc1cccc(C(=O)N2CCCN(C)CC2)c1"
  solubility kinetic: "35.6 µg/mL"
- Molecule: "O=C(CNC(=O)c1ccco1)Nc1ccc(Br)cc1"
  solubility kinetic: "14.1 µg/mL"
- Molecule: "Cc1onc(-c2ccccc2)c1C(=O)N(Cc1ccccc1)C(C)C"
  solubility kinetic: "> 50.2 µg/mL"
- Molecule: "Cc1cccc(C(=O)NCC(=O)NC(C)CCc2ccccc2)c1 (configuration not stated)"
  solubility kinetic: "40.8 µg/mL"

What the record says about `CC1CCN(C2=NC(=O)/C(=C/c3ccc(O)cc3)S2)CC1` : solubility kinetic is 3.8 µg/mL

###

Settings: buffer; pH 7.4; 200.0 µM
Entries and their measured log10 solubility kinetic follow.
Heads up: the numbers are on a log10 scale; they represent solubility kinetic in µg/mL.

Here are 4 compounds together with their reported answers.
- Compound: "CC1CN(C(=O)c2cc3cc(Cl)ccc3[nH]2)CC(C)O1 (configuration not stated)"
  log10 solubility kinetic: 1.39
- Compound: "O=C(C1CC(=O)N(c2ccc(F)cc2)C1)N1CCOCC1 (configuration not stated)"
  log10 solubility kinetic: 1.62
- Compound: "CCc1cccc(NC(=O)CC2Oc3ccccc3NC2=O)c1 (configuration not stated)"
  log10 solubility kinetic: 0.38
- Compound: "CCc1ccc(N2CC(C(=O)Nc3cc(C)on3)CC2=O)cc1 (configuration not stated)"
  log10 solubility kinetic: 1.41

Turning now to a further compound:
What the record says about `Cn1c(=O)c2ccccc2n(Cc2cccc(F)c2)c1=O` : log10 solubility kinetic is 0.56

###

Settings: buffer; pH 7.4; 200.0 µM
Entries and their measured log10 of solubility kinetic follow.
Heads up: the numbers are on a log10 scale; they represent solubility kinetic in µg/mL.

What the record says about CCOC(=O)CC(c1ccc(N)cc1)n1c(C)ccc1C (stereo not given) : log10 of solubility kinetic is 1.32

What the record says about `COc1cccc(-n2c(=S)[nH]c3c(oc4ccccc43)c2=O)c1` : log10 of solubility kinetic is 1.66

What the record says about COc1ccc(NC(=O)C2C3CCC(O3)C2C(=O)O)c(C)c1 (stereo not given) : log10 of solubility kinetic is 1.66

What the record says about `CSc1ncnc2sc(C)c(C)c12` : log10 of solubility kinetic is 0.11

What the record says about `COc1ccc(NS(=O)(=O)c2cccc(C(=O)OCC(=O)c3c(N)n(C)c(=O)n(C)c3=O)c2)cc1` : log10 of solubility kinetic is 1.21
